# System: CCRF-CEM
# measurement.notes: Cytoprotective activity against DEM-induced ROS production in human CEM cells at 1 to 5 uM pretreated for 16 hrs prior DEM challenge measured after 5.5 hrs by trypan blue exclusion method
# Format: functional, cell-based
Active and inactive are the calls of the source. The calls are words filed in the database; no cut-off is given here.
Field 'call' accepts active, inactive

Input: Test call for this compound, please: "CCCCCCCCCCc1nc2c(c(C)c1OC(C)=O)CCN2C"
Output: active

Input: What did this assay record as the result for "Cc1c(C)c2c(c(C)c1O)CC[C@@](C)(CCC[C@H](C)CCC[C@H](C)CCCC(C)C)O2" ?
Output: active

Input: Name the outcome recorded for "CCCCCc1nc2c(c(C)c1OC(C)=O)CCN2C" in the assay.
Output: active

###

# System: CCRF-CEM
# measurement.notes: Cytoprotective activity against DEM-induced ROS production in human CEM cells at 1 to 5 uM pretreated for 16 hrs prior DEM challenge measured after 5.5 hrs by trypan blue exclusion method
# Format: functional, cell-based
The source made the active and inactive calls. The calls are words filed in the database; no cut-off is given here.
Respond using exactly one of the listed classes: active, inactive

- smiles.code: "CCCCCCCCCCc1nc2c(c(C)c1O)CCN2C.O=C(O)C(F)(F)F"
  label.class: "active"

Input: Look up the recorded call for "CCCCCCCCCCCCCCCCc1nc2c(c(C)c1OC(C)=O)CCN2C" in this test.
Output: active

Input: Lab log entry: "CCCCCc1nc2c(c(C)c1O)CCN2C.O=C(O)C(F)(F)F" — outcome as called in the assay?
Output: active

Input: Field: outcome | Entry: "CCCCCCCCCCCCCCCCc1nc2c(c(C)c1O)CCN2C.O=C(O)C(F)(F)F"
Output: inactive
